Target: ER (Homo sapiens)
Construct: host or cells: T47D and MCF7 human breast cancer cells
Sequence (P03372 1-595): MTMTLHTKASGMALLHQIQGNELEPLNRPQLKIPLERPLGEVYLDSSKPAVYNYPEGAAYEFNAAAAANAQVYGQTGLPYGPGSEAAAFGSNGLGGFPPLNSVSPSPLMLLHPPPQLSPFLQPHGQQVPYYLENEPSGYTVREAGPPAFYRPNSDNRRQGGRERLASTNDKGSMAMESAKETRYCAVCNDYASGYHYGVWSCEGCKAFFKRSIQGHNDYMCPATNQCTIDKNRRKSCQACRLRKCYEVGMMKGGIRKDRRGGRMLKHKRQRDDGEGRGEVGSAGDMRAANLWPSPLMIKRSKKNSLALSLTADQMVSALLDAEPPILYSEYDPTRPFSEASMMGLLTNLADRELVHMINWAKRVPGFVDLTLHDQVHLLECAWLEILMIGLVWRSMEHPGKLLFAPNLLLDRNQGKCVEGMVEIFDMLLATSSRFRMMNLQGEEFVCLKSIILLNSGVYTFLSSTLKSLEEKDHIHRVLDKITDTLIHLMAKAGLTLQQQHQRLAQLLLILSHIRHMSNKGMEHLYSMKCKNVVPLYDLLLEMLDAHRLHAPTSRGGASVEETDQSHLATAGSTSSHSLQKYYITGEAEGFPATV
Assay: ER degradation activity, in-cell western blot analysis in T47D cells
Assay type: cell-based
Conditions: 16 hours, Table A does not say which cell line (T47D or MCF7), read-out: Potency (DC50)
QUANTITY KIND: DC50

// known answers, use as guide
| MOLECULE | DC50 |
| --- | --- |
| C[C@@H]1Cc2c([nH]c3ccccc23)[C@@H](c2c(F)cc(CN3CCC4(CC3)CC(CN3Cc5cc6c(cc5C3)C(=O)N(C3CCC(=O)NC3=O)C6=O)C4)cc2F)N1CC(F)F (stereo partly shown) [E 370] | > 100 nM |
| C[C@@H]1Cc2c([nH]c3ccccc23)[C@@H](c2c(F)cc(C3CCC(C(=O)N4CCC(N5Cc6cc7c(cc6C5)C(=O)N(C5CCC(=O)NC5=O)C7)CC4)CC3)cc2F)N1CC(F)F (stereo partly shown) [E 307] | < 10 nM |
| C[C@@H]1Cc2c([nH]c3ccccc23)[C@@H](c2c(F)cc(N3CCC(C(=O)N4CC(CN5Cc6cc7c(cc6C5)C(=O)N(C5CCC(=O)NC5=O)C7=O)C4)CC3)cc2F)N1CC(F)F (stereo partly shown) [E 234] | 10 to 100 nM |
| O=C1CCC(N2C(=O)c3cc4c(cc3C2=O)CN(CC2CCN(C(=O)C3(F)CN(c5ccc([C@@H]6c7ccc(O)cc7CC[C@@H]6c6ccccc6)cc5)C3)CC2)C4)C(=O)N1 (stereo partly shown) [E 203] | > 100 nM |
| O=C1CCC(N2C(=O)c3cc4c(cc3C2=O)CN(CC(=O)N2CCC3(CC2)CN(c2ccc([C@@H]5c6ccc(O)cc6CC[C@@H]5c5ccc(F)cc5Cl)cc2)C3)C4)C(=O)N1 (mixture of isomers) [E 11] | 10 to 100 nM |

Please look at the following molecule next.
stdin: For the molecule C[C@@H]1Cc2c([nH]c3ccccc23)[C@@H](c2c(F)cc(N3CCC4(CCN(C(=O)CN5Cc6cc7c(cc6C5)C(=O)N(C5CCC(=O)NC5=O)C7=O)CC4)CC3)cc2F)N1CC(F)F (stereo partly shown) [E 112] , what DC50 is on record?
stdout: < 10 nM
